Ref: patent US20200024278A1

- Tested on: PAE UFR90
- TEST METHOD NOTES: MIC, broth microdilution (CLSI), substance alone or ATB combined with compound at 4 or 8 μg/mL
- Assay type: cell-based, P. aeruginosa
- PARTICULARS: substance alone; PAE UFR90
Provide the recorded MIC for the entries that follow.

Here are 4 compounds together with their reported answers.
COMPOUND: O=C1N2CC(n3ccnn3)=CC(C2)N1OS(=O)(=O)[O-].[Na+] (centres unmarked) [Example 12]
MIC: >32 µg/mL

COMPOUND: O=C(O)C(F)(F)F.O=C1N2C[C@H](c3scnc3[C@H]2c2ncc[nH]2)N1OS(=O)(=O)[O-].[Na+] (relative stereo) [Example 6]
MIC: >32 µg/mL

COMPOUND: C[C@@H]1O[C@@H]1P(=O)(O)O [FOS, Fosfomycin, reference compound]
MIC: 8 µg/mL

COMPOUND: NC[C@@H]1CC(=NOCC(N)=O)[C@@H]2CN1C(=O)N2OS(=O)(=O)[O-].O=C(O)C(F)(F)F.[Na+] [Example 4]
MIC: 2 µg/mL

We next turn to a different compound, shown below.
Any idea what its MIC is? The compound is O=C1N2CC(n3ccnn3)=C[C@H](C2)N1OS(=O)(=O)[O-].[Na+] [Example 16] >32 µg/mL
